# SUBJECT_OF_TEST: p-Akt3 in WM115 cells (Homo sapiens)
# Construct: SureFire assays to detect cellular p-Akt1, p-Akt2 and p-Akt3 levels in WM115 cells (Akt2/3) and LNCaP cells (Akt1); endogenous in cells; host or cells: WM115 (ECACC 91061232), insulin-stimulated
# Sequence (Q9Y243 whole entry): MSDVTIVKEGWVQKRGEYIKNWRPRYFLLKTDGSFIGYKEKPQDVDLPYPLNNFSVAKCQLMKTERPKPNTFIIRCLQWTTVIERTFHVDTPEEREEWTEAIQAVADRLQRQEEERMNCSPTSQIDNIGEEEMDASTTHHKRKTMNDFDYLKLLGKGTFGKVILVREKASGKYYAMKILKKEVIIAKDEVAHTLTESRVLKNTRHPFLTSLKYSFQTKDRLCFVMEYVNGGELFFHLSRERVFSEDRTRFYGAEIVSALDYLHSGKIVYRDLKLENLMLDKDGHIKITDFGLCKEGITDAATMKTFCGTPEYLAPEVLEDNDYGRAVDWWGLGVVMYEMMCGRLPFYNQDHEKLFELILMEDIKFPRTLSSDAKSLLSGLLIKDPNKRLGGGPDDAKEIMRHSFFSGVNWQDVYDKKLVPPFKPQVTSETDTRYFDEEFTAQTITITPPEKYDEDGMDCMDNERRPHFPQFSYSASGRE
# METHOD: Phospho-Akt cellular SureFire assay, p-Akt3 in WM115 cells
# Format: cell-based
# MEASUREMENT_CONDITIONS: insulin stimulated, read-out: Biological Assay 2 IC50 (nM) Akt3 WM115
molecules and their reported IC50
Number in nM, nothing else.

Past entries and their recorded results:
In [3]: df
Out[3]:
                                   molecule                       subject_of_test  numeric_value
0  CC(=O)N(C)[C@H]1CC[C@H](CC(=O)Nc2cnc(-c3ccc([C@]4(N)C[C@](C)(O)C4)cc3)c(-c3ccccc3)c2)CC1  p-Akt3 in WM115 cells (Homo sapiens)             30
1  NC1(c2ccc(-c3ncc(NC(=O)C[C@H]4CC[C@H](N5CCOCC5)CC4)cc3-c3ccccc3)cc2)CC(F)(F)C1  p-Akt3 in WM115 cells (Homo sapiens)            560
2  CC(C)(N)c1ccc(-c2cnc(NC(=O)C[C@H]3CC[C@H](N4CCOC4=O)CC3)cc2-c2ccccc2)cc1  p-Akt3 in WM115 cells (Homo sapiens)            210

The reported IC50 of the molecule CC(=O)NC1CCC(CC(=O)Nc2cnc(-c3ccc([C@]4(N)C[C@](C)(O)C4)cc3)c(-c3ccccc3)c2)CC1 (stereo partly shown) was 150

====

# SUBJECT_OF_TEST: Akt2 (Homo sapiens, UniProt P31751)
# Construct: unspecified tag, removed (detagged) (cleaved yes); purchased SignalChem and Proteros (Akt2); Merck Millipore (PDK1) 14-452 (PDK1); none given for Akt2
# Sequence (P31751 whole entry): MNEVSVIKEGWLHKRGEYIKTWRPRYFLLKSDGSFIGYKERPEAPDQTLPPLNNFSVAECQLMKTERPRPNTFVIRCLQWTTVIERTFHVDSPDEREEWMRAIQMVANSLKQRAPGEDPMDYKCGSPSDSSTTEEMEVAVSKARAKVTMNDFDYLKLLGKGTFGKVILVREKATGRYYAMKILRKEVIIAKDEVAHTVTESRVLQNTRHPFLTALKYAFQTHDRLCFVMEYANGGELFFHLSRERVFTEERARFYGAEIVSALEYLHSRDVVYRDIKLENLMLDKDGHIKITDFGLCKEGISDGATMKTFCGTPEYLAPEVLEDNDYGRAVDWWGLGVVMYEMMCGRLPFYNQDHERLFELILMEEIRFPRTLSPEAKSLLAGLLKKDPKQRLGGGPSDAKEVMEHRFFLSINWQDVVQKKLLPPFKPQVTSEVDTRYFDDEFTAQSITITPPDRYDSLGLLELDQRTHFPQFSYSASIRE
# METHOD: Akt activation assay (PDK1-mediated activation, LANCE Ultra crosstide TR-FRET), Akt2
# Assay type: biochemical
# MEASUREMENT_CONDITIONS: read-out: Biological Assay 1 IC50 (nM) Akt2
# Experimental: Biological Assay 1: Akt Activation Assay Addition of a Europium-labelled antibody specific to the phosphopeptide allows energy transfer from the Europium donor to the Ultra Ulight™ acceptor if close enough in proximity. […] 5 μL enzyme in 1×AB was incubated with 2.5 μL test compound. […] Plates read with the EnVision® Multilabel Plate Reader, excitation at 320 nm and emission at 665 nm and 615 nm. Compound IC50 was determined using a 4-parameter equation.
Just a reminder that ties go to condition not met: only IC50 strictly below 500 nM counts as condition met.

In [3]: df
Out[3]:
                                   compound                      subject_of_test        label_value
0  NC1(c2ccc(-c3ncc(NC(=O)C[C@H]4CC[C@H](N5CCOC5=O)CC4)cc3-c3ccccc3)cc2)CC(F)(F)C1  Akt2 (Homo sapiens, UniProt P31751)  condition not met

# strict comparison: is reported IC50 < 500 nM? input = CN(C(=O)CC(C)(C)C)[C@H]1CC[C@H](CC(=O)Nc2cnc(-c3ccc(C(C)(C)N)cc3)c(-c3ccccc3)c2)CC1 condition not met

# strict comparison: is reported IC50 < 500 nM? input = CN(C(=O)CC1CC1)[C@H]1CC[C@H](CC(=O)Nc2cnc(-c3ccc(C(C)(C)N)cc3)c(-c3ccccc3)c2)CC1 condition not met

# strict comparison: is reported IC50 < 500 nM? input = CC(=O)N(C)[C@H]1CC[C@H](CC(=O)Nc2cnc(-c3ccc([C@]4(N)C[C@](C)(O)C4)cc3)c(-c3ccccc3)c2)CC1 condition met

====

# SUBJECT_OF_TEST: p-Akt2 in WM115 cells (Homo sapiens)
# Construct: SureFire assays to detect cellular p-Akt1, p-Akt2 and p-Akt3 levels in WM115 cells (Akt2/3) and LNCaP cells (Akt1); endogenous in cells; host or cells: WM115 (ECACC 91061232), insulin-stimulated
# Sequence (P31751 whole entry): as the sequence (P31751 whole entry) above
# METHOD: Phospho-Akt cellular SureFire assay, p-Akt2 in WM115 cells
# Type: cell-based
# MEASUREMENT_CONDITIONS: insulin stimulated, read-out: Biological Assay 2 IC50 (nM) Akt2 WM115
Just a reminder that ties go to f: only IC50 strictly below 2000 nM counts as t.

                                   compound  label_value
0  COC(=O)N(C)[C@H]1CC[C@H](CC(=O)Nc2cc(-c3ccccc3)c(-c3ccc(C(C)(C)N)cc3)nn2)CC1 [Example 56]            f
1  CC(=O)N(C)[C@H]1CC[C@H](CC(=O)Nc2cc(-c3ccccn3)c(-c3ccc(C4(N)CCC4)cc3)cn2)CC1 [Example 76]            f
2  CC(C)(N)c1ccc(-c2ncc(NC(=O)C[C@H]3CC[C@H](N4CCOC4=O)CC3)cc2-c2ccccc2)cc1 [Example 42]            f

# strict comparison: is reported IC50 < 2000 nM? input = CC(=O)N(CC(F)(F)F)[C@H]1CC[C@H](CC(=O)Nc2cc(-c3ccccc3)c(-c3ccc([C@]4(N)C[C@](C)(O)C4)cc3)cn2)CC1 [Example 117] t

# strict comparison: is reported IC50 < 2000 nM? input = CC(C)(N)c1ccc(-c2ncc(NC(=O)C[C@H]3CC[C@H](N4CCOCC4)CC3)cc2-c2ccccc2)cc1 [Example A18] f

# strict comparison: is reported IC50 < 2000 nM? input = COC(=O)N[C@H]1CC[C@H](CC(=O)Nc2cc(-c3ccccc3)c(-c3ccc([C@]4(N)C[C@](C)(O)C4)cc3)cn2)CC1 [Example 103] t

# strict comparison: is reported IC50 < 2000 nM? input = CC(C)(N)c1ccc(-c2ncc(NC(=O)C[C@H]3CC[C@H](N4CCCC4=O)CC3)cc2-c2ccccc2)cc1 [Example 24] f

# strict comparison: is reported IC50 < 2000 nM? input = CCC(=O)N(C)[C@H]1CC[C@H](CC(=O)Nc2cc(-c3ccccc3)c(-c3ccc([C@]4(N)C[C@](C)(O)C4)c(F)c3)cn2)CC1 [Example 112] f

# strict comparison: is reported IC50 < 2000 nM? input = COC(=O)N(C(C)C)[C@H]1CC[C@H](CC(=O)Nc2cnc(-c3ccc([C@]4(N)C[C@](C)(O)C4)cc3)c(-c3ccccc3)c2)CC1 [Example 121] t

====

# SUBJECT_OF_TEST: p-Akt1 in LNCaP cells (Homo sapiens)
# Construct: SureFire assays to detect cellular p-Akt1, p-Akt2 and p-Akt3 levels in WM115 cells (Akt2/3) and LNCaP cells (Akt1); endogenous in cells; host or cells: LNCaP (ECACC 89110211)
# Sequence (P31749 whole entry): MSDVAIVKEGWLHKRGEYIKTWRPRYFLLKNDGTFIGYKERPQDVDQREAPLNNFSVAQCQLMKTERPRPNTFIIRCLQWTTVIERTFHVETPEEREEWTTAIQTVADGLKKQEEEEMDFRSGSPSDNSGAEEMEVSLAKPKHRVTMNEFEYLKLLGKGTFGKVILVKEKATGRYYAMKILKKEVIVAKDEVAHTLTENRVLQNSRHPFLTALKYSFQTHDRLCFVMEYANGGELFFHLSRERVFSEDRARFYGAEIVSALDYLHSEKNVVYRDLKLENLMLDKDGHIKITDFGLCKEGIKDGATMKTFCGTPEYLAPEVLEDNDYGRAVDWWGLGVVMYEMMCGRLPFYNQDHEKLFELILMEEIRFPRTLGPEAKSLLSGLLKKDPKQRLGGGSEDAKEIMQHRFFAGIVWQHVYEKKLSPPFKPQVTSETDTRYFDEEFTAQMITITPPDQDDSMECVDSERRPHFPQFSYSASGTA
# METHOD: Phospho-Akt cellular SureFire assay, p-Akt1 in LNCaP cells
# Type: cell-based
# MEASUREMENT_CONDITIONS: read-out: Biological Assay 2 IC50 (nM) Akt1 LNCaP
molecules and their reported IC50

In [3]: df
Out[3]:
                         compound_structure      result
0  COC(=O)N(C)[C@H]1CC[C@H](CC(=O)Nc2cc(-c3ccccc3)c(-c3ccc(C(C)(C)N)cc3)cn2)CC1  > 30000 nM
1  CCC(=O)N(C)[C@H]1CC[C@H](CC(=O)Nc2cc(-c3ccccc3)c(-c3ccc([C@]4(N)C[C@](C)(O)C4)c(F)c3)nn2)CC1  > 30000 nM
2  COC(=O)N[C@H]1CC[C@H](CC(=O)Nc2cc(-c3ccccc3)c(-c3ccc([C@]4(N)C[C@](C)(O)C4)cc3)cn2)CC1     2600 nM
3  CC(=O)N(C)[C@H]1CC[C@H](CC(=O)Nc2cc(-c3ccccc3)c(-c3ccc(C4(N)CC4)c(F)c3)nn2)CC1  > 30000 nM
4  CCC(=O)N(C)[C@H]1CC[C@H](CC(=O)Nc2cc(-c3ccccc3)c(-c3ccc(C4(N)CC4)cc3)nn2)CC1  > 30000 nM

The reported IC50 of the molecule COC(=O)N(C)[C@H]1CC[C@H](CC(=O)Nc2cc(-c3ccccc3)c(-c3ccc(C4(N)CCC4)cc3)cn2)CC1 was > 30000 nM

The reported IC50 of the molecule CC(=O)N(C)[C@H]1CC[C@H](CC(=O)Nc2cc(-c3ccsc3)c(-c3ccc(C4(N)CCC4)cc3)cn2)CC1 was > 30000 nM

The reported IC50 of the molecule N[C@]1(c2ccc(-c3cnc(NC(=O)C[C@H]4CC[C@H](N5CCOC5=O)CC4)cc3-c3ccccc3)cc2)C[C@@H](F)C1 was > 30000 nM

The reported IC50 of the molecule NC1(c2ccc(-c3ncc(NC(=O)C[C@H]4CC[C@H](N5CCOCC5)CC4)cc3-c3ccsc3)cc2)CCC1 was 7000 nM

The reported IC50 of the molecule CC(C)(N)c1ccc(-c2ncc(NC(=O)C[C@H]3CC[C@H](C(=O)N4CCOCC4)CC3)cc2-c2ccccc2)cc1 was > 30000 nM
